Entries and their No. SNP
Test system: MIA (pancreatic cancer) cell genome
assayOverview: ctDNA coculture with MIA cells, whole genome sequencing: genomic insertion sites, transposons at insertion points and SNVs (pancreatic cancer)
Format: cell-based, human
appliedConditions: TABLE 4; number of single nucleotide variants (SNVs or SNPs) identified; polynucleotides for pancreatic cancer cells
Give only the figure.

50 (nucleic acid, listed as Homo sapiens) CAGTCTTTCAGGACCAGAAGAGATGGATTTTAGGTTTTCCTTCCACTCAATGTATTCTATATGTACCCTAATCAACAAACATGCCTGGTTGTCACAGGTAGAAGGGGTCTCTACTCTGAATCATTCAGAGAAGAAATAATCATATTCTTTCGATGCTATCACTAACACAGGACCGTGATCCGAGACAACCAGGTTCAGTTCTTGATATGTAAAGGAATTTGGGAAAATATCATCTCTCACCACAAAATCTGTATTTTTATGTATATTTAAGCAAAATCCTGTTTTGGTCATCATTTTCTTTACCTTTCTTCTATATCCATCCTAATCTCCCTTTCAGC = 3

Turning now to a further molecule:
Record request: No. SNP value, item 26 (nucleic acid, listed as Homo sapiens) AATTACAACAACCCTTAATATTTGTAAAGCGCTTGATAATTCAGGGAGGGCTTTTAAAAACTTCTATCCATCTCTTCCCCCCAGCAATCCTATGAGGTAGGCAGGGCTGGAATCATTTGCTGCATTTTATCGAATAGGAAGCCATGACTCGTAGAGGTCTGGTGACTTAACTGAGGTCACCCACTGAGGACGTGGCAGAGCTGGGTCCTGAATCTGTGGCCCTCAGGCTCTTTGCCTGGCCCTGCCTCACATAGACTACGCTGCCTCT
0
